Documented combination Emax across a set of molecules
System: TE-10 (Esophageal Squamous Cell Carcinoma)
Assay: combination Emax (second highest fraction inhibited in the dose matrix, 72 h); higher = more inhibition; extreme values may be limits of the assay

Cc1c2c(nn1C)CSCc1cc(n(C)n1)CSc1cc(c3ccccc3c1)OCCCc1c(C(=O)O)n(C)c3c-2c(Cl)ccc13 [AZD5991] + C=CCn1c(=O)c2cnc(Nc3ccc(N4CCN(C)CC4)cc3)nc2n1-c1cccc(C(C)(C)O)n1 [AZD1775] (first compound max 1 µM, partner max 1 µM) = 0.942
CCN(CCO)CCCOc1ccc2c(Nc3cc(CC(=O)Nc4cccc(F)c4)[nH]n3)ncnc2c1 [AZD2811] + C[C@@H]1COCCN1C2=NC(=NC(=C2)C3(CC3)[S@](=N)(=O)C)C4=C5C=CNC5=NC=C4 [AZD6738] (first compound max 1 µM, 7x7, partner max 10 µM) = 0.794
Cc1cc2ncnn2cc1Nc1ncc2c(n1)n(C1CCOCC1)c(=O)n2C [AZD7648] + CCN(CCO)CCCOc1ccc2c(Nc3cc(CC(=O)Nc4cccc(F)c4)[nH]n3)ncnc2c1 [AZD2811] (first compound max 10 µM, 7x7, partner max 1 µM) = 0.335

molecule Cc1c2c(nn1C)CSCc1cc(n(C)n1)CSc1cc(c3ccccc3c1)OCCCc1c(C(=O)O)n(C)c3c-2c(Cl)ccc13 [AZD5991] + C[C@@H](Nc1cc(F)cc(F)c1)c1cc(C(=O)N(C)C)cc2c(=O)cc(N3CCOCC3)oc12 [AZD8186] (first compound max 1 µM, 7x7, partner max 3 µM) , combination Emax observed: 0.891

molecule CN(CCO)CC[C@H](CSc1ccccc1)Nc1ccc(S(=O)(=O)NC(=O)c2ccc(N3CCC([C@@H](O)c4ccccc4-c4ccc(Cl)cc4)CC3)cc2)cc1S(=O)(=O)C(F)(F)F [AZD4320] + C=CCn1c(=O)c2cnc(Nc3ccc(N4CCN(C)CC4)cc3)nc2n1-c1cccc(C(C)(C)O)n1 [AZD1775] (first compound max 1 µM, partner max 1 µM) , combination Emax observed: 0.848

---

Documented combination Emax across a set of molecules
Tested on: KYSE-140 (Esophageal Squamous Cell Carcinoma)
Experiment: combination Emax (second highest fraction inhibited in the dose matrix, 72 h); higher = more inhibition; extreme values may be limits of the assay
Answer with a number only.

# annotated cases, reported combination Emax shown
CC1(C)CCC(CN2CCN(c3ccc(C(=O)NS(=O)(=O)c4ccc(NCC5CCOCC5)c([N+](=O)[O-])c4)c(Oc4cnc5[nH]ccc5c4)c3)CC2)=C(c2ccc(Cl)cc2)C1 [Venetoclax] + C[C@@H]1COCCN1C2=NC(=NC(=C2)C3(CC3)[S@](=N)(=O)C)C4=C5C=CNC5=NC=C4 [AZD6738] (first compound max 1 µM, 7x7, partner max 10 µM) = 0.863
CN(CCO)CC[C@H](CSc1ccccc1)Nc1ccc(S(=O)(=O)NC(=O)c2ccc(N3CCC([C@@H](O)c4ccccc4-c4ccc(Cl)cc4)CC3)cc2)cc1S(=O)(=O)C(F)(F)F [AZD4320] + CN(C)CCCOc1ccc(-c2ccc3ncc4c(c3c2)n(C2CCOCC2)c(=O)n4C)cn1 [AZD0156] (first compound max 1 µM, 7x7, partner max 1 µM) = 0.157

Okay, next one:
molecule C=CCn1c(=O)c2cnc(Nc3ccc(N4CCN(C)CC4)cc3)nc2n1-c1cccc(C(C)(C)O)n1 [AZD1775] + O=C(c1cc(Cc2n[nH]c(=O)c3ccccc23)ccc1F)N1CCN(C(=O)C2CC2)CC1 [Olaparib] (first compound max 1 µM, partner max 10 µM) , combination Emax observed: 0.733

src = the supplement of paper PMC11061612
